displacement: recorded values
biological target: Bcl-2-like protein 10 (Homo sapiens); experiment: displacers of TR3 peptide from Bcl-B, primary screen, selectivity assay for Bfl-1 inhibitor project, biochemical, fluorescence polarization, FITC-TR3 peptide (AID 748); settings: FP displacement of FITC-TR3 peptide from Bcl-B; at 20 µM; hits give high values;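 note: plate controls were wells without compound for no effect and wells lacking Bcl-B protein for full effect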
Out of some 96,000 compounds screened, about 100 (0.1%) were called active. This is one part of a sample in which actives are shown more often than they occur. Results with a measured potency or affinity are listed apart.
Just the number in %, nothing appended.

Please review the following examples before continuing.
compound	displacement [%]
Cc1cc(NC(=O)CN2CCN(S(=O)(=O)c3ccc4ccccc4c3)CC2)no1	-1
O=c1oc2c3c4c(cc2c2c1CCC2)OCCN4CCC3	49.8
CCc1ccc2[nH]c(=O)c(C3C(C#N)=C(N)Oc4c3ccc3cccnc43)cc2c1 (stereo not drawn)	-4.7
Brc1ccc(C2Nc3cccc4cccc(c34)N2)o1	17.6
Cc1c(C(=O)OCC2CCCO2)[nH]c2c1C(=O)CC(c1ccc(N(C)C)cc1)C2 (stereo not drawn)	-1.6

// switching to the query compound
Give a short answer stating reported displacement for "O=C(Nc1ccc(N2CCOCC2)cc1)c1ccc2nc(-c3ccco3)c(-c3ccco3)nc2c1" . 0
